Reported pKd values for the following binders.
Target: T1, Recombinant Human OX40L Protein, His Tag (Acro Cat. IL3-H52H4) (human, UniProt P23510 51-183)
T1 construct: Bought His-tagged protein; also called hOX40L
T1 sequence: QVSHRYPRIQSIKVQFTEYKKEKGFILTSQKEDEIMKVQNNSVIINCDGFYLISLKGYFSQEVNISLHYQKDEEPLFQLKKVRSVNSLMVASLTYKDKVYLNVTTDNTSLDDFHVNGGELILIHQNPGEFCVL
Assay: SPR (Biacore 8K), antibody captured, human OX40L injected, 1:1 fit
pKd: −log10 of the molar value.
reported.property: pKd

[
  {
    "binder": "anti-hOX40L antibody clone 130 (antibody, human IgG1, kappa, L234A L235A, V domains shown) VH: EVQLVESGGGLVKPGGSLRLSCAASGFTFSYAWMSWVRQAPGRGLEWVGRIKSETDGGTTDYAAPVKGRFTISRDHSENTLFLQMNSLKTEDTAVYYCTTGSSWNVYFFDFWGQGTLVTVSS VL: DIQMTQSPSSLSASVGDSVTITCRASQSISNYLNWYHQKPGKAPKLLIYAAYRLQTGVPSRFSGSGSGTDFTLTISSLQPEDFATYYCQQSYSSPLTFGGGTKVEIKR",
    "limit.sign": "=",
    "obs.value": 10.06
  },
  {
    "binder": "anti-hOX40L antibody clone 118 (antibody, human IgG1, kappa, L234A L235A, V domains shown) VH: EVQVVESGGGLIQPGGSLRISCAASGFPVSSNYMSWVRQAPGKGLDWVSIIYSRDSTHYADSVKGRFTMSRDNSKNTVYLQMNSLRAEDTAVYYCAGTLTYYYGAGSDYWGQGTLVTVSS VL: DIQMTQSPSSLSASVGDRVTITCRASQGIRNDLGWYQQKPGKAPKRLIYAASSLQSGVPSRFSGSGSGTEFTLTISSLQPEDFATYYCLQHNSYPWSFGQGTKVEIKR",
    "limit.sign": "=",
    "obs.value": 9.74
  },
  {
    "binder": "anti-hOX40L antibody clone 122 (antibody, human IgG1, kappa, L234A L235A, V domains shown) VH: EVQLVESGGGLVQPGGSLRLSCAASGFTFSNYWMHWVRQAPGKGLVWVSRINSDGISTRYADSVKGRFTISRDNAKNTLYLQMKSLRAEDTAVYYCVRDFQLELPDYWGQGTLVTVSS VL: DIQMTQSPSSLSASVGDRVTITCRASQGIRDDLAWYQQKAGKAPKRLIFAASSLQSGVPSRFSGSGSGTEFTLTISGLQPEDFANYYCLQHKSNPFTFGQGTKLEIKR",
    "limit.sign": ">",
    "obs.value": 11.18
  },
  {
    "binder": "anti-hOX40L antibody clone 128 (antibody, human IgG1, kappa, L234A L235A, V domains shown) VH: EVQLVESGGGLVTPGGSLRISCAASGFTFNNAWMTWVRQAPGKGLEWVGRIKSISYGGTTDSAAPVKGRFTISRDDSENTLYLQMSSLKTEDTAVYYCSTGSVWKYGGSLDFWGQGTLVTVSS VL: DIQMTQSPSSLSASVGDRVTFTCRASQGISRFLNWYQQKPGKAPKLLIYAASTLQNGVPSRFSGSGSGTDFTLTISSLQPEDFATYFCQQTYSTPLTFGGGTKVEIYR",
    "limit.sign": ">",
    "obs.value": 11.05
  }
]
